- assayed_system: pneumolysin (Streptococcus pneumoniae serotype 2)
- Sequence (Q04IN8 whole entry): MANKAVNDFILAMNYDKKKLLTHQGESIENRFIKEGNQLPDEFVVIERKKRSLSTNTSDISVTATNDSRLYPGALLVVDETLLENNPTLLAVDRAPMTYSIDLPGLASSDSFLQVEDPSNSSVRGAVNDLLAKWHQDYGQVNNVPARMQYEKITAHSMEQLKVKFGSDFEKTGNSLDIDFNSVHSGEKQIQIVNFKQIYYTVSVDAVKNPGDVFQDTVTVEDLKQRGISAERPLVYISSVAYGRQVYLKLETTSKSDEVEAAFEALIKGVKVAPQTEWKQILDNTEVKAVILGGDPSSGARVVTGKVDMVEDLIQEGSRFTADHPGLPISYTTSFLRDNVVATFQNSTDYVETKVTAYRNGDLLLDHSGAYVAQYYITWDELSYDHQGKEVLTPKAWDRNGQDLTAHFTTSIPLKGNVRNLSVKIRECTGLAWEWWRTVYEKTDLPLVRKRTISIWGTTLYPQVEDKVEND
- method_notes: Inhibition of the haemolytic activity of pneumolysin (sheep erythrocytes)
- Assay type: cell-based
- test_parameters: IC50, inhibition of pneumolysin-induced haemolysis of sheep erythrocytes; class symbols of Table 1
Assignment: determine reported IC50 for the given molecules.

Please review the entries below; each comes with its answer.
structure_smiles: CCOC(=O)c1c(O)c(O)c(C(=O)N2CCN(C)CC2)n1-c1ccc(OC)cc1
result: < 10 µM
--
structure_smiles: COc1ccccc1-n1c(C(=O)N2CCOCC2)c(O)c(O)c1C(=O)N1CCOCC1
result: < 10 µM
--
structure_smiles: COc1ccc(-n2c(C(=O)N3CCCCC3)c(O)c(O)c2C(=O)N2CCCCC2)cc1
result: < 10 µM
--
structure_smiles: CCOC(=O)c1c(O)c(O)c(C(=O)OCC)n1-c1ccc(C(F)(F)F)cc1
result: < 10 µM
--
structure_smiles: CCOC(=O)c1c(OC(=O)C(C)(C)COCCOCCOCCOCCOCCOCCOCCOC)c(OC(=O)C(C)(C)COCCOCCOCCOCCOCCOCCOCCOC)c(C(=O)N(C)C)n1-c1ccc(OC)cc1
result: < 10 µM
--
structure_smiles: CCOC(=O)c1c(O)c(OP(=O)(O)O)c(C(=O)N(C)C)n1-c1ccc(OC)cc1
result: 20 to 60 µM
--
structure_smiles: COc1ccc(-n2c(C(=O)N3CCCCC3)c(OCc3ccccc3)c(OCc3ccccc3)c2C(=O)N2CCCCC2)cc1
result: < 10 µM

Continue with the molecule presented below.
q: Report IC50 for "CCNC(=O)c1c(OCc2ccccc2)c(OCc2ccccc2)c(C(=O)N(C)C)n1-c1ccc(OC)cc1" please.
a: 10 to 20 µM
